# Tested on: TO-3-N3-2 (biotin conjugate)
# Assay Notes: pull-down binding Z-score (relative to library population); higher = stronger binding
# Condition Summary: RNA library: Library-2
Measured pull-down binding Z-score of individual entries
Value Type: pull-down binding Z-score

| Chain Sequence | Reported Value |
| --- | --- |
| GGCUCCUGGCGCUGAUGCC [hsa-mir-6886] | 0.297 |
| GUGAUAGAGCCAUGCCUAACAUGCUUAGAAUUAUGGCCUCAC | 0.0068 |
| AGAGGCUGUGGGCAGGGGGAGAUGUGAAGGAAAGAACUAGGACCCAUUCAUCCACU [hsa-mir-6807] | 2.57 |
| AUGUUUAUUGUAAAGAUACUUU [hsa-mir-1305] | -0.418 |
| UGGGUGGAUCCUCUAUUUCCUUACGUGGGCCACUGG [hsa-mir-432] | -0.013 |
